Data provenance: patent US5073566A

This section presents compounds with their documented Kb values.
- Measurement target: angiotensin-induced vasoconstriction (rabbit aorta) (Oryctolagus cuniculus)
- Construct: the thoracic aortas were removed and cleaned of excess fat and connective tissue; from tissue; host or cells: thoracic aorta rings of New Zealand white rabbits
- Sequence (P34976 whole entry): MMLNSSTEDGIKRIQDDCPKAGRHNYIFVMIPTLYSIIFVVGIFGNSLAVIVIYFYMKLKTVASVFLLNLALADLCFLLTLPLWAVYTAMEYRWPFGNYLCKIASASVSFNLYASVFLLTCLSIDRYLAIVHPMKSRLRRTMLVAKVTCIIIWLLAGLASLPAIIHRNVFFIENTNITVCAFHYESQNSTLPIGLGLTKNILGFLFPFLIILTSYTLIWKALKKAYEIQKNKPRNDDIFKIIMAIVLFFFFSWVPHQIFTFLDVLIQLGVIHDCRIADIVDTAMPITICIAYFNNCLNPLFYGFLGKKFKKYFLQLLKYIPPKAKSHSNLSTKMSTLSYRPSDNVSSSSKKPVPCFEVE
- Test: Rabbit Aorta Test System: antagonism of angiotensin II-induced contraction of aortic rings
- Format: cell-based, New Zealand white rabbits
Where a name gives a salt, the structure may show the parent alone.
Note: state the figure and append the unit.

Example entries begin here.
Compound: CCCCCCC(C(=O)O)n1cnc(NC(=O)C(O)(c2ccccc2)c2ccccc2)c1 (stereo not shown) [Example 29, hydrochloride]
Kb: 25.7 µM
//
Compound: CCCCCCC(C(=O)O)c1ccc(NC(=O)C2(O)c3ccccc3-c3ccccc32)cc1 (stereo not shown) [Example 46]
Kb: 43.7 µM
//
Compound: CCCCCCC(C(=O)O)n1cnc(NC(=O)C2(O)c3ccccc3-c3ccccc32)c1 (stereo not shown) [Example 59]
Kb: 3.09 µM

Next compound, please.
Entry under test: CCCCCCC(C(=O)OCC)n1cnc(NC(=O)C(O)(c2ccccc2)c2ccccc2)c1 (stereo not shown) [Example 14] . Its Kb was 55 µM

###

- Measurement target: angiotensin-induced vasoconstriction (rabbit aorta) (Oryctolagus cuniculus)
- Construct: the thoracic aortas were removed and cleaned of excess fat and connective tissue; from tissue; host or cells: thoracic aorta rings of New Zealand white rabbits
- Test: Rabbit Aorta Test System: antagonism of angiotensin II-induced contraction of aortic rings
- Format: cell-based, New Zealand white rabbits
- Condition set: pA2 = -log KB; KB = [molar concentration of antagonist]/[(EC50 AII with antagonist/EC50 AII without antagonist)-1]; 30 min incubation; AII 10^-10 to 10^-7 M; read-out: Rabbit Aorta (pA2) (converted)
This section presents compounds with their documented Kb values.
Could you give me the number in nM? Just the number is fine.

Compound: CCCCCCC(c1nn[nH]n1)n1cnc(NC(=O)c2ccccc2C(=O)O)c1 (stereo not drawn) [Example 50, hemihydrate]
Unit spec: nM
Kb: 851

Entry under test: CCCCCCC(C(=O)O)n1cnc(C(=O)Nc2ccccc2CCCCO)c1.Cl (stereo not drawn) [Example 84, hydrochloride] . Its Kb was 2290

Entry under test: CCCCCCC(C(=O)O)n1cnc(C(=O)Nc2ccccc2CO)c1.Cl (stereo not drawn) [Example 83, hydrochloride] . Its Kb was 3890

Entry under test: CCCCCCC(C(=O)O)n1cnc(NC(=O)c2ccccc2C(=O)O)c1 (stereo not drawn) [Example 33] . Its Kb was 631

Entry under test: CCCCC(C(=O)O)n1cnc(C(=O)Nc2ccccc2O)c1.Cl (stereo not drawn) [Example 89, hydrochloride] . Its Kb was 38900

Entry under test: CCCCCCC(C(=O)OCC)c1ccc(NC(=O)C2c3ccccc3-c3ccccc32)cc1 (stereo not drawn) [Example 18] . Its Kb was 794000

###

- Measurement target: angiotensin-induced vasoconstriction (rabbit aorta) (Oryctolagus cuniculus)
- Construct: the thoracic aortas were removed and cleaned of excess fat and connective tissue; from tissue; host or cells: thoracic aorta rings of New Zealand white rabbits
- Test: Rabbit Aorta Test System: antagonism of angiotensin II-induced contraction of aortic rings
- Assay type: cell-based, New Zealand white rabbits
- Condition set: pA2 = -log KB; KB = [molar concentration of antagonist]/[(EC50 AII with antagonist/EC50 AII without antagonist)-1]; 30 min incubation; AII 10^-10 to 10^-7 M; read-out: Rabbit Aorta (pA2) (converted)
Metric: Kb (nM)
Could you give me the number in nM? Just the number is fine.

Example entries begin here.
Compound: CCCCCCC(C(=O)O)n1cnc(NC(=O)c2cc(C(=O)O)ccc2O)c1 (stereo not drawn)
Measurement target: angiotensin-induced vasoconstriction (rabbit aorta) (Oryctolagus cuniculus)
Metric: Kb
Value reported: 11700
--
Compound: CCCCCCC(C(=O)O)n1cnc(NC(=O)c2c(F)cccc2C(=O)O)c1 (stereo not drawn)
Measurement target: angiotensin-induced vasoconstriction (rabbit aorta) (Oryctolagus cuniculus)
Metric: Kb
Value reported: 1580

Entry under test: CCCCCCC(C(=O)O)n1cnc(NC(=O)C(c2ccccc2)c2ccccc2)c1.Cl (stereo not drawn) [Example 51, hydrochloride] . Its Kb was 2690
